Test: The drug is tested on Bifidobacterium longum strain: DSM20088 for biotransformation under microaerobic condition. The drug concentrations were measured over 6 timepoints collected between 0 and 12 hours of incubation by liquid-chromatography-coupled mass spectrometry (LC–MS)
Assay type: ADME
Set-up: dose 5 uM, timepoint 0, 1.5, 3, 6, 9, 12 hours
Conditions: 5 µM
measured-endpoint: Bacterial Biotransformation

Please supply the value of reported Bacterial Biotransformation for the item C=CC[C@@H]1/C=C(\C)C[C@H](C)C[C@H](OC)[C@H]2O[C@@](O)(C(=O)C(=O)N3CCCC[C@H]3C(=O)O[C@H](/C(C)=C/[C@@H]3CC[C@@H](O)[C@H](OC)C3)[C@H](C)[C@@H](O)CC1=O)[C@H](C)C[C@@H]2OC.O [TACROLIMUS]
Compound NOT metabolized

Please supply the value of reported Bacterial Biotransformation for the item CNC(=C[N+](=O)[O-])NCCSCc1ccc(CN(C)C)o1 [RANITIDINE]
Compound NOT metabolized

Please supply the value of reported Bacterial Biotransformation for the item C[C@@H]1C[C@H]2[C@@H]3CCC4=CC(=O)C=C[C@]4(C)[C@@]3(F)[C@@H](O)C[C@]2(C)[C@@]1(O)C(=O)CO [DEXAMETHASONE]
Compound NOT metabolized

###

Test: The drug is tested on the gut metagenome community of P-02 with ENA study accession number: PRJEB31790 for biotransformation under microaerobic condition. The drug concentrations were measured over 7 timepoints collected between 0 and 12 hours of incubation by liquid-chromatography-coupled mass spectrometry (LC–MS)
Format: ADME
Design: dose 5 uM, timepoint 0, 0.75, 1.5, 3, 6, 9, 12 hours
Conditions: 5 µM
measured-endpoint: Bacterial Biotransformation

Please supply the value of reported Bacterial Biotransformation for the item C[C@]12C=CC(=O)C=C1CC[C@@H]1[C@@H]2C(=O)C[C@@]2(C)[C@H]1CC[C@]2(O)C(=O)CO
Compound metabolized

Please supply the value of reported Bacterial Biotransformation for the item CCOc1nc2cccc(C(=O)O)c2n1Cc1ccc(-c2ccccc2-c2nnn[nH]2)cc1
Compound NOT metabolized

Please supply the value of reported Bacterial Biotransformation for the item C[C@H]1C[C@H]2[C@@H]3CCC4=CC(=O)C=C[C@]4(C)[C@@]3(F)[C@@H](O)C[C@]2(C)[C@@]1(O)C(=O)CO
Compound NOT metabolized

Please supply the value of reported Bacterial Biotransformation for the item C[C@H]1C[C@@H]2[C@H]([C@@H](O)C[C@@]3(C)[C@H]2CC[C@]3(O)C(=O)CO)[C@@]2(C)C=CC(=O)C=C12
Compound metabolized

###

Test: The drug is tested on the gut metagenome community of A-03 with ENA study accession number: PRJEB31790 for biotransformation under anaerobic condition. The drug concentrations were measured over 7 timepoints collected between 0 and 12 hours of incubation by liquid-chromatography-coupled mass spectrometry (LC–MS)
Assay type: ADME
Parameters: dose 5 uM, timepoint 0, 0.75, 1.5, 3, 6, 9, 12 hours
Conditions: 5 µM
measured-endpoint: Bacterial Biotransformation

Use these answered entries as a reference point.
Please supply the value of reported Bacterial Biotransformation for the item CC(C)NCC(O)COc1ccc(CC(N)=O)cc1 (stereo unspecified)
Compound NOT metabolized

Please supply the value of reported Bacterial Biotransformation for the item CCCC1O[C@@H]2C[C@H]3[C@@H]4CCC5=CC(=O)C=C[C@]5(C)[C@H]4[C@@H](O)C[C@]3(C)[C@]2(C(=O)CO)O1 (stereo partly specified) [BUDESONIDE]
Compound NOT metabolized

Please supply the value of reported Bacterial Biotransformation for the item CN(Cc1cnc2nc(N)nc(N)c2n1)c1ccc(C(=O)N[C@@H](CCC(=O)O)C(=O)O)cc1 [METHOTREXATE]
Compound metabolized

Please supply the value of reported Bacterial Biotransformation for the item C[C@H]1C[C@H]2[C@@H]3CCC4=CC(=O)C=C[C@]4(C)[C@@]3(F)[C@@H](O)C[C@]2(C)[C@@]1(O)C(=O)CO
Compound metabolized

Please supply the value of reported Bacterial Biotransformation for the item CO[C@H]1C[C@@H]2CC[C@@H](C)[C@@](O)(O2)C(=O)C(=O)N2CCCC[C@H]2C(=O)O[C@H]([C@H](C)C[C@@H]2CC[C@@H](O)[C@H](OC)C2)CC(=O)[C@H](C)/C=C(\C)[C@@H](O)[C@@H](OC)C(=O)[C@H](C)C[C@H](C)/C=C/C=C/C=C/1C
Compound metabolized

---
Please supply the value of reported Bacterial Biotransformation for the item CCOC(=O)[C@H](CCc1ccccc1)N[C@@H](C)C(=O)N1[C@H](C(=O)O)C[C@@H]2CCC[C@@H]21
Compound NOT metabolized
